molecular target: T1, AMHR-II/Fc fusion protein (human, UniProt Q16671 18-149, limits assumed); experiment: phage-scFv ELISA on AMHRII-Fc; mean of at least four values, standard deviation in parentheses
T1 construct: also called AMHR-II recombinant receptor expressed in the form of fusion protein with a region Fc; recombinant target; not shown: Fc region
T1 sequence (Q16671 18-149 limits assumed): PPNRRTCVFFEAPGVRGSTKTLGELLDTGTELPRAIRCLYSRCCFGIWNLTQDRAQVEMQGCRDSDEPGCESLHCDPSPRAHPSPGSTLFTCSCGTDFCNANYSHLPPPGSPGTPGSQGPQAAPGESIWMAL
Listed here are binders together with their documented Ratio AB invention/chimeric 12G4.
MEASUREMENT TYPE: Ratio AB invention/chimeric 12G4

INSERT INTO measurements (binder, reported_value) VALUES
  ('4C_35 (mutated huLFB112 phage-scFv clone) (scFv, part only; not given: scFv linker and phage partner, V domains shown, not shown: another chain or arm of the molecule; large carriers; small tags and cut ends) VH: QVQLVQSGAEVKKPGASVKVSCKASGYTFTSYHIHWVRQAPGQRPEWMGWIYPGDDSTKYSQKFQGRVTITRDTSASTAYMELSSLRSEDTAVYYCTRGDRFAYWGQGTLVTVSS VL: DIQMTQSPSTLSASVGDRVTITCRASSSVRYIAWYQQKPGKAPKLLIYSTSSLKSGVPSRFSGSGSGTEFTLTISSLQPDDFATYYCLQWSSYPWTFGGGTKVEIK', 1.9),
  ('6B_76 (mutated huLFB112 phage-scFv clone) (scFv, V domains shown, scFv on M13 phage, tested as culture supernatant; not shown: The 15-residue scFv linker (positions 116-130 of the scFv numbering) and the M13 phage display partner) VH: QVQLVQSGAEVKKPGASVKVSCKASGYTFTSYHIHWVRQVPGQRLEWMGWIYPGDDSTKYSQKFQGRVTITRDTSASTAYMELSSLRSEDTAVYYCTRGDRFAYWGQGTLVTVSS VL: DIQMTQSPSTLSASVGDRVTITCRASSSVRYIAWYQQKPGKAPKLLIYPTSSLESGVPSRFSGSGSGTEFTLTISSLQPDDFATYYCLQWSSYPWTFGGGTKVEIK', 0.8),
  ('5B_81 (mutated huLFB112 phage-scFv clone) (scFv, part only; not given: scFv linker and phage partner, V domains shown, not shown: another chain or arm of the molecule; large carriers; small tags and cut ends) VH: QVQLVQSGAEVKKPGASVKVSCKASGYTFTSYHIHWVRQAPGQRPEWMGWIYPGDDSTKYSQKFQGRVTITRDTSASTAYMELSSLRSEDTAVYYCTRGDRFAYWGQGTLVTVSS VL: DIQMTQSPSTLSASVGDRVTITCRASSSVRYIAWYQQKPGKAPKLLIYSTSSLESGVPSRFSGSGSGTEFTLTISSLQPDDFATYYCLQWSSYPWTFGGGTKVEIK', 1.6),
  ('3D_74 (mutated huLFB112 phage-scFv clone) (scFv, V domains shown, scFv on M13 phage, tested as culture supernatant; not shown: The 15-residue scFv peptide linker (positions 116-130 of the scFv numbering) and the M13 phage display partner) VH: QVQLVQSGAEVKKPGASVKVSCKASGYTFTSYHIHWVRQAPGQRLEWMGWIYPGDDSTKYSQKFQGRVTITRDTSASTAYMELSSLRSEDTAVYYCTRGDRFAYWGQGTLVTVSS VL: DIQMTQSPSTLSASVGDRVTITCRASSPVRYIAWYQQKPGKAPKLLIYSTSSLESGVPSRFSGSGSGTEFTLTISSLQPDDFATYYCLQWSSYPWTFGGGTKVEIK', 0.8),
  ('6B_87 (mutated huLFB112 phage-scFv clone) (scFv, V domains shown, scFv on M13 phage, tested as culture supernatant; Q1E: TAG codon suppressed, translated to E in E. coli XL1-blue; not shown: The 15-residue scFv peptide linker (positions 116-130 of the scFv numbering) and the M13 phage display partner) VH: EVQLVQSGAEVKKPGASVKVSCKVSGYTFTSYHIHWVRQAPGQRLEWMGWIYPGDDSTKYSQKFQGRVTITRDTSASTAYMELSSLRSEDTAVYYCTRGDRFAYWGQGTLVTVSS VL: DIQMTQSPSTLSASVGDRVTITCRASSSVRYIAWYQQKPGKAPKLLIYSTSSLESGVPSRFSGSGSGTEFTLTISSLQPDDFATYYCLQWSSYPWTFGGGTKVEIK', 1);
